Tested on: MOLP-8 human multiple myeloma cell line
method.summary: MOLP8 Caspase-Glo 3/7 apoptosis induction assay
Assay type: cell-based
condition.context: MOLP-8 cells, 2 hours at 37° C.; 30 μM highest conc.; averaged over all runs on all batches
reported.metric: AC50 (nM)
// note: answer is a bare numeric in nM

Cc1nn(C)c2c1CSCc1cc(n(C)n1)CCc1cc(c3ccc(F)cc3c1)OCCCc1c(C(=O)O)n(C)c3c-2c(Cl)ccc13 (single isomer, unassigned) [Compound 9]; 8960
COCCOCc1nn(C)c2c1CSCc1cc(n(C)n1)CCc1cc(c3ccc(F)c(F)c3c1)OCCCc1c(C(=O)O)n(C)c3c-2c(Cl)ccc13 (single isomer, unassigned) [Compound 16]; 13
CCn1c(C(=O)O)c2c3ccc(Cl)c(c31)-c1c(cnn1C)CCCc1cc(n(C)n1)CCc1cc(c3ccc(F)cc3c1)OCCC2 (single isomer, unassigned) [Compound 14]; 3460
COCCOCc1nn(C)c2c1CSCc1cc(n(C)n1)CCc1cc(c3ccc(F)cc3c1)OCCCc1c(C(=O)O)n(C)c3c-2c(Cl)ccc13 (single isomer, unassigned) [Compound 8]; 15

Moving on to another compound below.
input: Any idea what its AC50 is? The compound is Cn1nc2cc1CCc1cc(c3ccc(F)cc3c1)OCCCc1c(C(=O)O)n(CCN3CCOCC3)c3c(c(Cl)ccc13)-c1c(cnn1C)CSC2 (single isomer, unassigned) [Compound 21]
output: 82

Values were extracted from patent US20230265105A1.
